Each entry below lists one item and its recorded IL-2, % of BMS, at 0.001016105 ug/mL value.
biological target: human LAG3 expressed on cells (human) (UniProt P18627); test: cell-based or functional assay
Sequence (P18627 23-525): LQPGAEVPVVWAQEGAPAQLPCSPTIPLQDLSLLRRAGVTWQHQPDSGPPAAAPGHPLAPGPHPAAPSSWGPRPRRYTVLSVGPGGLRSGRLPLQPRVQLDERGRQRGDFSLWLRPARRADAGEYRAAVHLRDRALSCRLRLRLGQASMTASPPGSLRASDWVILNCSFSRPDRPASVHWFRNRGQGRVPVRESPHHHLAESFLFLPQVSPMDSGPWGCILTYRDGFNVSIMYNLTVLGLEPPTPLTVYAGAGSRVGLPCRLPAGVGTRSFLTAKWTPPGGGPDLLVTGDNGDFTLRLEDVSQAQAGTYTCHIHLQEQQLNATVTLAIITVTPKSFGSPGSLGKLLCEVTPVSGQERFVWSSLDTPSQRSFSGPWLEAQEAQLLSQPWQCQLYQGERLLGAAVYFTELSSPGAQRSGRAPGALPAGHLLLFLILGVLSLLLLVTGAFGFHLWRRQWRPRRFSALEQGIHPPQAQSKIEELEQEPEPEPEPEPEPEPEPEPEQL
Respond with the bare value in %.

Binder: sdAb fusion 25-27-3 (Fc fusion, not shown: a dimerising Fc or GST) QLQLVESGGGLVQAGGSLRLSCAASGSIESFSFMGWYRQAPGKQRELVAGFTGAASLSFSTYTDAVKGRFTISRDNAKNTVYLQMNSLKPEDTAVYFCNVDPWSQSWPGRYWGQGTQVTVSSGGGGSGGGGSGGGGSQVQLVESGGGLVQPGGSLRLSCAASGFTLDYYAIGWFRQAPGKEREGVSCIRSSDGSTYYADSVKGRFTISSDNTKNTVYLQMNSLKPEDTAVYYCATDRYSDCRGPYENWGQGTQVTVSSEPKSCDKTHTCPPCPAPELLG
Measured endpoint: IL-2, % of BMS, at 0.001016105 ug/mL
Unit descriptor: %
Reported result: 0.0673

Binder: sdAb fusion 25-2015-2 (Fc fusion, not shown: a dimerising Fc or GST) QLQLVESGGGLVQAGGSLRLSCAASGSIESFSFMGWYRQAPGKQRELVAGFTGAASLSFSTYTDAVKGRFTISRDNAKNTVYLQMNSLKPEDTAVYFCNVDPWSQSWPGRYWGQGTQVTVSSGGGGSGGGGSQLQLVESGGGLAQTGGSLRLSCAAAGFTFDDTATGWFRQAPGKNREGVACISSSDGRIHYIDSAKGRFTISKDNAKKTVYLQMDSLKPEDTAVYYCAAARKGSTDCQGAIWGSWGQGTQVIVSSEPKSCDKTHTCPPCPAPELLG
Measured endpoint: IL-2, % of BMS, at 0.001016105 ug/mL
Unit descriptor: %
Reported result: 0.000334

Binder: sdAb fusion 25-2015-3 (Fc fusion, not shown: a dimerising Fc or GST) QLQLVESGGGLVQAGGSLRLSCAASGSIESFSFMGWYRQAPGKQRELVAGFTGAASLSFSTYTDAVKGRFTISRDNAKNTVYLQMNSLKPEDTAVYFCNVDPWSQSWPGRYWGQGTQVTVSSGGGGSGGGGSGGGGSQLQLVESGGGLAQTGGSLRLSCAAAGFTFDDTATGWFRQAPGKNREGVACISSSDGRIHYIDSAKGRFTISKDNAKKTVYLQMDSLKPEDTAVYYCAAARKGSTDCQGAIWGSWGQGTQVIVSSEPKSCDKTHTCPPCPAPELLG
Measured endpoint: IL-2, % of BMS, at 0.001016105 ug/mL
Unit descriptor: %
Reported result: 0

Would you kindly share the measured IL-2, % of BMS, at 0.001016105 ug/mL for sdAb fusion 25-17-3 (Fc fusion, not shown: a dimerising Fc or GST) QLQLVESGGGLVQAGGSLRLSCAASGSIESFSFMGWYRQAPGKQRELVAGFTGAASLSFSTYTDAVKGRFTISRDNAKNTVYLQMNSLKPEDTAVYFCNVDPWSQSWPGRYWGQGTQVTVSSGGGGSGGGGSGGGGSQLQLVESGGGLVQPGGSLRLSCAASGLTLDGYAIGWFRQAPGKEREGLACISGSDGSTHYLDSVKGRFTISRDNGKNTMALQMNSLQFGDTAIYYCAARRGSCSGSWTYWGQGTQVTVSSEPKSCDKTHTCPPCPAPELLG ?
0.000639

meta.source: patent US20230303690A1
